target: SLK (Homo sapiens, UniProt Q9H2G2); test: biochemical
Sequence (Q9H2G2 34-292): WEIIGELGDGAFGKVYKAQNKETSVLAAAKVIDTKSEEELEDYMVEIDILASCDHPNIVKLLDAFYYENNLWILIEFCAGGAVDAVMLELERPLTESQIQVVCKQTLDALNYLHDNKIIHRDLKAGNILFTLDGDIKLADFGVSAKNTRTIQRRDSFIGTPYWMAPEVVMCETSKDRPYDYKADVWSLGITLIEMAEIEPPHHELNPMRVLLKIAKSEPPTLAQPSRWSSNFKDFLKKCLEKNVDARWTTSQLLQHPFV
PARAMETER: Ki (nM)
Give the quantity in nM, number only.

# Ki of C#Cc1cccc(Nc2c(C#N)cnc3cc(OC)c(OC)cc23)c1 = 18

====

target: SLK (Homo sapiens, UniProt Q9H2G2); test: biochemical; settings: read-out: SLK Ki; binder
PARAMETER: pKi
Please keep in mind that pKi is minus log10 of the molar concentration; only the number is needed.

# pKi of COc1cc2ncc(C#N)c(Nc3cc(OC)c(OC)c(OC)c3)c2cc1OC = 6.24

====

biological target: STK10 (Homo sapiens); assay: biochemical
Sequence (O94804 36-294 limits assumed): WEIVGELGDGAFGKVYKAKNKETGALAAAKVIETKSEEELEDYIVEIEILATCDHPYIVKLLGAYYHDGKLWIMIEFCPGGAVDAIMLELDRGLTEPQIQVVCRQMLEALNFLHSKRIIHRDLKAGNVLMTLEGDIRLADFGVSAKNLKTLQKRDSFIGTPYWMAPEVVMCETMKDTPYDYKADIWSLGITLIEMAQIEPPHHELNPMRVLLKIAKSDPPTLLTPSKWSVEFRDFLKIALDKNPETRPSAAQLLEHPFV
PARAMETER: Ki

See these solved cases before continuing.
# Ki of Fc1cc(F)cc(Nc2ccnc3ccc(Br)cc23)c1 [compound 105, 105] = > 55 µM

# Ki of Fc1cccc(Nc2ccnc3ccc(Br)cc23)c1 [compound 110, 110] = > 55 µM

// next entry
# Ki of Brc1cccc(Nc2ncnc3ccc(Br)cc23)c1 [compound 113, 113] = 6 µM
